experimental_system: Cyclin-dependent kinase 2/cyclin E (Homo sapiens, UniProt P24941)
method_notes: Inhibition of Cyclin-dependent kinase 2-cyclin E
metric_name: log10(IC50) (log10 of the value in µM)
Record value = log10 of IC50 given in µM.

Previously resolved entries follow.
[
  {
    "molecule": "CN1CC[C@H](c2c(O)cc(O)c3c(=O)cc(Sc4ccccc4Cl)oc23)[C@H](O)C1 (stereo in doubt; 16)",
    "experimental_system": "Cyclin-dependent kinase 2/cyclin E (Homo sapiens, UniProt P24941)",
    "log10(IC50)": 0.32
  },
  {
    "molecule": "CN1CCC(c2c(O)cc(O)c3c(=O)cc(SC(C)(C)C)oc23)C(O)C1 (racemic)",
    "experimental_system": "Cyclin-dependent kinase 2/cyclin E (Homo sapiens, UniProt P24941)",
    "log10(IC50)": 0.03
  },
  {
    "molecule": "CCSc1cc(=O)c2c(O)cc(O)c(C3CCN(C)CC3O)c2o1 (racemic)",
    "experimental_system": "Cyclin-dependent kinase 2/cyclin E (Homo sapiens, UniProt P24941)",
    "log10(IC50)": 0.59
  }
]

// each molecule listed below needs its log10(IC50)
1. CN1CCC(c2c(O)cc(O)c3c(=O)cc(N4CCCCC4)oc23)C(O)C1 (racemic)
2. Cc1cc(C)nc(Sc2cc(=O)c3c(O)cc(O)c(C4CCN(C)CC4O)c3o2)n1 (racemic)
3. CN1CCC(c2c(O)cc(O)c3c(=O)cc(Sc4ccccc4)oc23)C(O)C1 (racemic)
4. CN1CC[C@H](c2c(O)cc(O)c3c(=O)cc(Sc4ccccc4Cl)oc23)[C@H](O)C1 (stereo in doubt; 21)

1. 0.99
2. 1.61
3. 0.82
4. 0.64

====

method_notes: Inhibition of Cyclin-dependent kinase 1-cyclin A
Design: species or system Homo sapiens
metric_name: IC50 (nM)
Answers are plain numbers, in nM.

[
  {
    "compound": "CN1CC[C@H](c2c(O)cc(O)c3c(=O)cc(Sc4ccccc4Cl)oc23)[C@H](O)C1 (stereo in doubt; 16)",
    "meas_value": 160
  }
]

From here, focus on the item given below.
Record CN1CC[C@H](c2c(O)cc(O)c3c(=O)cc(-c4ccccc4Cl)oc23)[C@H](O)C1 , field IC50: 50

====

experimental_system: Cyclin-dependent kinase 2/cyclin A (Homo sapiens, UniProt P24941)
method_notes: Inhibition of Cyclin-dependent kinase 2-cyclin A
Assay type: protein-complex assay
metric_name: IC50 (nM)
One number for each entry, in nM.

Case CN1CC[C@H](c2c(O)cc(O)c3c(=O)cc(Sc4ccccc4Cl)oc23)[C@H](O)C1 (stereo in doubt; 16) , Cyclin-dependent kinase 2/cyclin A (Homo sapiens, UniProt P24941), IC50 recorded as 1500

====

Would you mind telling me the reported IC50 of each entry?
experimental_system: Epidermal growth factor receptor (Homo sapiens, UniProt P00533)
Sequence (P00533 whole entry): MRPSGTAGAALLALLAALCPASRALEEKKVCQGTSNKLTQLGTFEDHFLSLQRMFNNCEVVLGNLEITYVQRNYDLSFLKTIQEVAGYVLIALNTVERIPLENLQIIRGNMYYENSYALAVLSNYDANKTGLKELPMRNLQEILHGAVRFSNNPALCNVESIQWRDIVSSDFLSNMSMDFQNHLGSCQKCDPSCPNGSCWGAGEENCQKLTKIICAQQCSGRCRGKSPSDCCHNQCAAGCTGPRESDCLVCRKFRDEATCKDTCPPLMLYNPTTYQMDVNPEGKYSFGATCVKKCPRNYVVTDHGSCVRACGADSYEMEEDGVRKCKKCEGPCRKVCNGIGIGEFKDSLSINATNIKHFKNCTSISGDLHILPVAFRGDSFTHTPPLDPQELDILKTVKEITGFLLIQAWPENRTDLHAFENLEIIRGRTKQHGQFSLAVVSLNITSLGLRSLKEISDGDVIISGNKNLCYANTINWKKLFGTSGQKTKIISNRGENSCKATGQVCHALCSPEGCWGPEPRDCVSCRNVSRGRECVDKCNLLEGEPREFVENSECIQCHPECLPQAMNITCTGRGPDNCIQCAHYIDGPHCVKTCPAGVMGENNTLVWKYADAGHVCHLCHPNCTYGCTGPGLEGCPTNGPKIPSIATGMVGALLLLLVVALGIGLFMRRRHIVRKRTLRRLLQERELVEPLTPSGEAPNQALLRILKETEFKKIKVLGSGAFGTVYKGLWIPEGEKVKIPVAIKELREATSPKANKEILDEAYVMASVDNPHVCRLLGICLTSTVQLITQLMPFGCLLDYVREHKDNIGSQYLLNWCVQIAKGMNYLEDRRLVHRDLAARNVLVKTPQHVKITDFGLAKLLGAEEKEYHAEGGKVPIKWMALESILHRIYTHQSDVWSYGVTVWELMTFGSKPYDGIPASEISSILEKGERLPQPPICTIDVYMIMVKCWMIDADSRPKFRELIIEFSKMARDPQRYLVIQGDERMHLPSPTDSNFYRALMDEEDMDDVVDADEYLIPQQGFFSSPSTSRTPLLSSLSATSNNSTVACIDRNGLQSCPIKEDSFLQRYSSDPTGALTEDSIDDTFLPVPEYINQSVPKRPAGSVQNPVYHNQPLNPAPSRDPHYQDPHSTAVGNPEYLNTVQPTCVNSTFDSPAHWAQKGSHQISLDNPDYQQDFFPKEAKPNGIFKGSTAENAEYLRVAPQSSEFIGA

[
  {
    "compound": "COC(=O)[C@@]1(Cc2ccc(O)c(CC=C(C)C)c2)OC(=O)C(O)=C1c1ccc(O)cc1",
    "IC50": "590 µM"
  }
]

The recorded IC50 for CN1CC[C@H](c2c(O)cc(O)c3c(=O)cc(Sc4ccccc4Cl)oc23)[C@H](O)C1 (stereo in doubt; 16) is > 50 µM

====

method_notes: Inhibition of PKA kinase
Design: species or system Bos taurus
Give IC50 for every item shown.

Worked cases, IC50 given:
[
  {
    "compound": "Cn1cnc2c(NCc3ccccc3)nc(NCCO)nc21",
    "meas_value": "2000 µM"
  },
  {
    "compound": "CN1CC[C@H](c2c(O)cc(O)c3c(=O)cc(Sc4ccccc4Cl)oc23)[C@H](O)C1 (stereo in doubt; 16)",
    "meas_value": "> 50 µM"
  },
  {
    "compound": "COC(=O)[C@@]1(Cc2ccc(O)c(CC=C(C)C)c2)OC(=O)C(O)=C1c1ccc(O)cc1",
    "meas_value": "260 µM"
  },
  {
    "compound": "CN1CC[C@H](c2c(O)cc(O)c3c(=O)cc(-c4ccccc4Cl)oc23)[C@H](O)C1",
    "meas_value": "> 50 µM"
  }
]

# context switch: different compound, same IC50
IC50 for CN1CC[C@H](c2c(O)cc(O)c3c(=O)cc(Oc4ccccc4Cl)oc23)[C@H](O)C1 is > 50 µM

====

experimental_system: Protein kinase C (PKC)
method_notes: Inhibition of rat brain PKC kinase
Record form. Attribute: IC50. Fill in for each entry.
Answers are plain numbers, in µM.

List IC50 for every entry below, keeping the order given.
1. COC(=O)[C@@]1(Cc2ccc(O)c(CC=C(C)C)c2)OC(=O)C(O)=C1c1ccc(O)cc1
2. Cn1cnc2c(NCc3ccccc3)nc(NCCO)nc21
3. CN1CC[C@H](c2c(O)cc(O)c3c(=O)cc(-c4ccccc4Cl)oc23)[C@H](O)C1
4. CN1CC[C@H](c2c(O)cc(O)c3c(=O)cc(Sc4ccccc4Cl)oc23)[C@H](O)C1 (stereo in doubt; 16)

1: 160; 2: 1000; 3: 14; 4: 16.1

====

experimental_system: Cyclin-dependent kinase 4/cyclin D1 (Homo sapiens)
Sequence (P11802 whole entry): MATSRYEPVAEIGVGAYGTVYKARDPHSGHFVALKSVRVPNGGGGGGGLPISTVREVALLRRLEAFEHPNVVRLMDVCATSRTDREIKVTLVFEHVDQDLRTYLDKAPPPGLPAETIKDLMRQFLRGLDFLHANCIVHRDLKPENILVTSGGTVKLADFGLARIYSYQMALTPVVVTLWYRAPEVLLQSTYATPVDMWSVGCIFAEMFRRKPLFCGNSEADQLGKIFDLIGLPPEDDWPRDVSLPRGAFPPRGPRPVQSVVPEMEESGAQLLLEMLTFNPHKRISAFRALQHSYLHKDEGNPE
Sequence (P24385 whole entry, further chain): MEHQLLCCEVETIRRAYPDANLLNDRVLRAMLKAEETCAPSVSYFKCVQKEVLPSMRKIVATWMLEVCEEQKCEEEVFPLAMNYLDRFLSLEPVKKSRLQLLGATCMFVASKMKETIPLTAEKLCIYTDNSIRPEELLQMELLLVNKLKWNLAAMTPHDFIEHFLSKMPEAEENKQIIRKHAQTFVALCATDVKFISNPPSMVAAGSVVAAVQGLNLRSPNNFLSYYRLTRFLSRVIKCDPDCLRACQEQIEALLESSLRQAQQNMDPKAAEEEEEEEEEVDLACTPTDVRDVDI
method_notes: Inhibition of Cyclin-dependent kinase 4-cyclin D1
metric_name: log10(IC50) (log10 of the value in µM)
Note: values are log10 of IC50 expressed in µM.

Past entries and their recorded results:
[
  {
    "molecule": "CN1CC[C@H](c2c(O)cc(O)c3c(=O)cc(Sc4ccccc4Cl)oc23)[C@H](O)C1 (stereo in doubt; 16)",
    "experimental_system": "Cyclin-dependent kinase 4/cyclin D1 (Homo sapiens)",
    "meas_value": 1.21
  },
  {
    "molecule": "CN1CCC(c2c(O)cc(O)c3c(=O)cc(N4CCCCC4)oc23)C(O)C1 (racemic)",
    "experimental_system": "Cyclin-dependent kinase 4/cyclin D1 (Homo sapiens)",
    "meas_value": 0.57
  },
  {
    "molecule": "CN1CCC(c2c(O)cc(O)c3c(=O)cc(Sc4ccccc4)oc23)C(O)C1 (racemic)",
    "experimental_system": "Cyclin-dependent kinase 4/cyclin D1 (Homo sapiens)",
    "meas_value": 0.61
  },
  {
    "molecule": "CCSc1cc(=O)c2c(O)cc(O)c(C3CCN(C)CC3O)c2o1 (racemic)",
    "experimental_system": "Cyclin-dependent kinase 4/cyclin D1 (Homo sapiens)",
    "meas_value": 0.31
  },
  {
    "molecule": "CN1CCC(c2c(O)cc(O)c3c(=O)cc(SC(C)(C)C)oc23)C(O)C1 (racemic)",
    "experimental_system": "Cyclin-dependent kinase 4/cyclin D1 (Homo sapiens)",
    "meas_value": 0.32
  },
  {
    "molecule": "COC(=O)[C@@]1(Cc2ccc(O)c(CC=C(C)C)c2)OC(=O)C(O)=C1c1ccc(O)cc1 [BUTYROLACTONE I]",
    "experimental_system": "Cyclin-dependent kinase 4/cyclin D1 (Homo sapiens)",
    "meas_value": 3.00
  }
]

Record Cc1cc(C)nc(Sc2cc(=O)c3c(O)cc(O)c(C4CCN(C)CC4O)c3o2)n1 (racemic) ; system Cyclin-dependent kinase 4/cyclin D1 (Homo sapiens); log10(IC50) = 1.92

====

The following compounds have recorded IC50 on Cyclin-dependent kinase 1/cyclin B1 (Homo sapiens, UniProt P06493).
Sequence (P06493 whole entry): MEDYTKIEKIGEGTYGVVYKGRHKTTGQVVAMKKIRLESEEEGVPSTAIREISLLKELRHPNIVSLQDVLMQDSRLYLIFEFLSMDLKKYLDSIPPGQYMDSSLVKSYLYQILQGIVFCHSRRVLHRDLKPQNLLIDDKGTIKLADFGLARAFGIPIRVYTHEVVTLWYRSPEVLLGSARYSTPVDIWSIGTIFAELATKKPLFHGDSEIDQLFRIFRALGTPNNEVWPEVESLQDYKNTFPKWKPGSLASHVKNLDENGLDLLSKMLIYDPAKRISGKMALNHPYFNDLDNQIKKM
Sequence (P14635 whole entry, further chain): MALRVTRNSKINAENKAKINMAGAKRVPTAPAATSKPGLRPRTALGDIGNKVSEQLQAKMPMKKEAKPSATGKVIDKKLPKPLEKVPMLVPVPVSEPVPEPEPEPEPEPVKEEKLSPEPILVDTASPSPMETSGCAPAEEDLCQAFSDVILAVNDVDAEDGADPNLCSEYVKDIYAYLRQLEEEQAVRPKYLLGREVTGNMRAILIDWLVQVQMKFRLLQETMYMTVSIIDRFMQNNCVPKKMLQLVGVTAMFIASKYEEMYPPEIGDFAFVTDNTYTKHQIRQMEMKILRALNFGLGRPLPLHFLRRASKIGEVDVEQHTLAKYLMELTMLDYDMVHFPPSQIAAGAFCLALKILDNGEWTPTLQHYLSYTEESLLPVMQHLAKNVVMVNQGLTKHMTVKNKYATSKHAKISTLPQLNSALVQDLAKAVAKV
# do not omit the unit; it follows the number

Look over these answered cases.
[
  {
    "compound": "CN1CCC(c2c(O)cc(O)c3c(=O)cc(SC(C)(C)C)oc23)C(O)C1 (racemic)",
    "IC50": "0.08 µM"
  },
  {
    "compound": "CN1CC[C@H](c2c(O)cc(O)c3c(=O)cc(Sc4ccccc4Cl)oc23)[C@H](O)C1 (stereo in doubt; 16)",
    "IC50": "0.11 µM"
  },
  {
    "compound": "CN1CCC(c2c(O)cc(O)c3c(O)c/c(=N\\c4ccccc4)oc23)C(O)C1 (racemic)",
    "IC50": "16.3 µM"
  },
  {
    "compound": "CCSc1cc(=O)c2c(O)cc(O)c(C3CCN(C)CC3O)c2o1 (racemic)",
    "IC50": "0.46 µM"
  },
  {
    "compound": "CN1CCC(c2c(O)cc(O)c3c(=O)cc(Sc4ccccc4)oc23)C(O)C1 (racemic)",
    "IC50": "0.44 µM"
  }
]

Report IC50 for each item below.
1. Cc1cc(C)nc(Sc2cc(=O)c3c(O)cc(O)c(C4CCN(C)CC4O)c3o2)n1 (racemic)
2. CN1CCC(c2c(O)cc(O)c3c(=O)cc(N4CCCCC4)oc23)C(O)C1 (racemic)
3. CN1CC[C@H](c2c(O)cc(O)c3c(=O)cc(Sc4ccccc4Cl)oc23)[C@H](O)C1 (stereo in doubt; 21)

1: 6.4 µM; 2: 2.5 µM; 3: 6.1 µM
